// molecules with log10(IC50) on UniProt P53341, multi-source literature
Sequence (P53341 whole entry): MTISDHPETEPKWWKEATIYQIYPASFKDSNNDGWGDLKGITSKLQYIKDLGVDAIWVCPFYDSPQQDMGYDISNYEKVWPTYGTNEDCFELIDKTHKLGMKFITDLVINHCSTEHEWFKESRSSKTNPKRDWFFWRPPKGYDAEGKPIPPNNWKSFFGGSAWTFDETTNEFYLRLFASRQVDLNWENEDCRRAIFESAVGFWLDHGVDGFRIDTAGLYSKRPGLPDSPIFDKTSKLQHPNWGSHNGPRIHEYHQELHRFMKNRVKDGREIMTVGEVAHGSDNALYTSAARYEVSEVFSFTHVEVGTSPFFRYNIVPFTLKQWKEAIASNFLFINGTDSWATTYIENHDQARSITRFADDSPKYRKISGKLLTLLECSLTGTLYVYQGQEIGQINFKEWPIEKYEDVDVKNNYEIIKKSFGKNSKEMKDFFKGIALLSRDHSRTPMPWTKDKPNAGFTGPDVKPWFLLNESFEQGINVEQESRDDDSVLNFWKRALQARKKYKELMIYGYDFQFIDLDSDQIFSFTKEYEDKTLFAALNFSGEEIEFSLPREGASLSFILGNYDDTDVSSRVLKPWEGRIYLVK
Field: value | Transform: log10 | Quantity: IC50 | Unit: µM

Task item: Query for UniProt P53341: what log10(IC50) does the record show for COC(=O)CC1c2c(ccc3c2C(=O)C(=O)N3C)-c2ccccc2N1S(=O)(=O)c1ccccc1 (stereo not given) ?
Reply: 1.89

Task item: Query for UniProt P53341: what log10(IC50) does the record show for CO[C@@H]1O[C@H](Cn2cc(-c3ccccc3)nn2)[C@H]2OC(C)(C)O[C@@H]12 ?
Reply: 1.17

Task item: Query for UniProt P53341: what log10(IC50) does the record show for OC[C@H]1O[C@@H](CNCc2ccc(O)cc2)[C@H](O)[C@@H](O)[C@@H]1O ?
Reply: 2.17

Task item: Query for UniProt P53341: what log10(IC50) does the record show for Cc1ccc(NC(=O)Cn2cc(Cn3c(-c4cccc(F)c4)nc(-c4ccccc4)c3-c3ccccc3)nn2)c(C)c1 ?
Reply: 1.48

Task item: Query for UniProt P53341: what log10(IC50) does the record show for CCOC(=O)C1=C(C)NC(C)=C(C(=O)OCC)C1c1ccccc1F ?
Reply: 1.78

Task item: Query for UniProt P53341: what log10(IC50) does the record show for COc1ccc(NC(=O)Cn2cc(Cn3c(-c4cccc(Cl)c4)nc(-c4ccccc4)c3-c3ccccc3)nn2)cc1 ?
Reply: 1.68

Task item: Query for UniProt P53341: what log10(IC50) does the record show for CC1(C)C=Cc2c(ccc(C(=O)CO)c2O)O1 ?
Reply: 2.62

Task item: Query for UniProt P53341: what log10(IC50) does the record show for CC(=O)Oc1cc(C(=O)NC[C@@H]2O[C@H](CO)[C@@H](O)[C@H](O)[C@H]2O)cc(OC(C)=O)c1OC(C)=O ?
Reply: 2.35

Task item: Query for UniProt P53341: what log10(IC50) does the record show for CO[C@@H]1O[C@H](Cn2cc(C3(O)CCCCC3)nn2)[C@H]2OC(C)(C)O[C@@H]12 ?
Reply: 0.72

Task item: Query for UniProt P53341: what log10(IC50) does the record show for O=C(/C=C/c1ccccc1)NC[C@@H]1O[C@H](CO)[C@@H](O)[C@H](O)[C@H]1O ?
Reply: 0.36

Task item: Query for UniProt P53341: what log10(IC50) does the record show for CC1(C)C(=O)CC[C@]2(C)C3=C(C(=O)C[C@@H]12)[C@]1(C)C(=O)C[C@H]([C@]2(C)CCC(=O)O2)[C@@]1(C)CC3=O ?
Reply: 1.91

Task item: Query for UniProt P53341: what log10(IC50) does the record show for COc1ccc(-c2ccnc3nnnn23)cc1 ?
Reply: 1.93

Task item: Query for UniProt P53341: what log10(IC50) does the record show for Oc1ccccc1-c1ccnc2nnnn12 ?
Reply: 3.24

Task item: Query for UniProt P53341: what log10(IC50) does the record show for CCOC(=O)C1=C(C)NC(C)=C(C(=O)OCC)C1c1ccc(SC)cc1 ?
Reply: 1.99

Task item: Query for UniProt P53341: what log10(IC50) does the record show for COC(=O)CC1c2c(ccc3c2C(=O)C(=O)N3C)-c2ccccc2N1C(=O)c1ccc(Cl)cc1 (stereo not given) ?
Reply: 1.88
